TARGET: hK-RasG12C - hSOS1 interaction (Homo sapiens, UniProt Q07889)
Construct: hSOS1 (amino acid 564-1049); made in house; host or cells: E. coli BL21 (DE3)
ASSAY_REMARKS: Biochemical Assay 1: hK-RasG12C interaction assay with hSOS1 (HTRF)
Type: binding
PROTOCOL_CONDITIONS: values expressed as IC50
pIC50: −log10 of the molar value.
Hi, to clarify the labels: rule met covers pIC50 from 7 upward, rule not met covers anything below 7.

Ask: Say whether Cc1nc(N[C@H](C)c2cccc(Br)c2)c2nc(N(C)C)ccc2n1 shows pIC50 of 7 or more.
Result: rule not met

Ask: Say whether Cc1nc(NC(C)c2ccc(-c3ccccc3CN(C)C)s2)c2cc(OC3CCS(=N)(=O)CC3)ncc2n1 (centres unmarked) shows pIC50 of 7 or more.
Result: rule met

Ask: Say whether CCOc1cc2c(N[C@H](C)c3cccc(Cl)c3)nc(C)nc2cn1 shows pIC50 of 7 or more.
Result: rule not met

Ask: Say whether CCOc1cc2c(NC(C)c3cccc4sccc34)nc(C)nc2cn1 (centres unmarked) shows pIC50 of 7 or more.
Result: rule not met

Ask: Say whether Cc1nc(NC(C)c2ccc(-c3ccccc3CN(C)C)s2)c2cc(OCCN(C)C)ncc2n1 (centres unmarked) shows pIC50 of 7 or more.
Result: rule met

Ask: Say whether Cc1nc(N[C@H](C)c2cccc(Br)c2)c2cc(NCCN3CCOCC3)ncc2n1 shows pIC50 of 7 or more.
Result: rule not met

Ask: Say whether Cc1nc(N[C@H](C)c2cccc(Br)c2)c2cc(OCCN(C)C)ncc2n1 shows pIC50 of 7 or more.
Result: rule not met

====

TARGET: hSOS1 (hSOS1-mediated loading of hK-RasG12C-GDP) (Homo sapiens, UniProt Q07889)
Sequence (Q07889 with tags, fused parts or gaps): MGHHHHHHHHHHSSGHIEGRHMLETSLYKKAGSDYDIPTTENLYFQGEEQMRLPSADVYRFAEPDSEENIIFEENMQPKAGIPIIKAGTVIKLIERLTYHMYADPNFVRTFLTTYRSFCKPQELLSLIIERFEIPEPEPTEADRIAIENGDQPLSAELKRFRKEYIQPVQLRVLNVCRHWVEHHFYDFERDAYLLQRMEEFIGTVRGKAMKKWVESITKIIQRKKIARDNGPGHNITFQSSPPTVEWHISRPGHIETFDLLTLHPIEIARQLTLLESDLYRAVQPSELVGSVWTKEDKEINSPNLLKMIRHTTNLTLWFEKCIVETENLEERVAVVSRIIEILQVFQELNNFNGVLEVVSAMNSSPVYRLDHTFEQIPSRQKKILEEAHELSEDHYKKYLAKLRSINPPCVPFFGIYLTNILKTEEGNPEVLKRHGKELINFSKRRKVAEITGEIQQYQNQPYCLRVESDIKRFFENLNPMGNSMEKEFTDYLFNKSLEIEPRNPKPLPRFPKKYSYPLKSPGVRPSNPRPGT
// returns 0 (no) unless IC50 is strictly below 0.6 µM, in which case 1 (yes)

Take a look at these entries with their results.
Ask: Check if IC50 falls below 0.6 µM for Cc1nc(N[C@H](C)c2cccc(Br)c2)c2cc(N3CCNC(=O)C3)ncc2n1 .
Result: 1 (yes)

Ask: Check if IC50 falls below 0.6 µM for Cc1nc(N[C@H](C)c2cccc(Br)c2)c2cc(NCCn3cccn3)ncc2n1 .
Result: 0 (no)

Ask: Check if IC50 falls below 0.6 µM for CSc1cc2c(NC(C)c3ccc(-c4ccccc4CN(C)C)s3)nc(C)nc2cn1 (centres unmarked) .
Result: 1 (yes)

Ask: Check if IC50 falls below 0.6 µM for Cc1nc(NC(C)c2ccc(-c3ccccc3CN(C)C)s2)c2cc(OCCCN(C)C)ncc2n1 (centres unmarked) .
Result: 1 (yes)

Ask: Check if IC50 falls below 0.6 µM for CCOc1cc2c(N[C@H](C)c3ccc(Br)cc3)nc(C)nc2cn1 .
Result: 0 (no)

Ask: Check if IC50 falls below 0.6 µM for Cc1nc(NC(C)c2ccc(-c3ccccc3CN(C)C)s2)c2cc(N3CC(NS(=O)(=O)Cc4ccccc4)C3)ncc2n1 (centres unmarked) .
Result: 1 (yes)

Ask: Check if IC50 falls below 0.6 µM for CCOc1cc2c(N[C@H](C)c3cccc(Cl)c3)nc(C)nc2cn1 .
Result: 0 (no)

Ask: Check if IC50 falls below 0.6 µM for CCOc1ncc2nc(C)nc(N[C@H](C)c3cccc(Br)c3)c2n1 .
Result: 0 (no)

Ask: Check if IC50 falls below 0.6 µM for COCCOc1ccc2nc(C)nc(N[C@H](C)c3cccc(Br)c3)c2n1 .
Result: 0 (no)

Ask: Check if IC50 falls below 0.6 µM for COc1cc2c(NC(C)c3cccc4nn(C)cc34)nc(C)nc2cn1 (centres unmarked) .
Result: 0 (no)

Next:
Ask: Check if IC50 falls below 0.6 µM for COCCOc1ncc2nc(C)nc(N[C@H](C)c3cccc(Br)c3)c2n1 .
Result: 0 (no)

Ask: Check if IC50 falls below 0.6 µM for Cc1nc(NC(C)c2ccc(-c3ccccc3CN(C)C)s2)c2cc(Oc3cccc(C4=NCCN4C)c3)ncc2n1 (centres unmarked) .
Result: 1 (yes)

Ask: Check if IC50 falls below 0.6 µM for Cc1nc(N[C@H](C)c2cccc(Br)c2)c2nc(OCc3ccccc3)ccc2n1 .
Result: 0 (no)

Ask: Check if IC50 falls below 0.6 µM for Cc1nc(NC(C)c2ccc(-c3ccccc3CN(C)C)s2)c2cc(N3CC(NC(=O)C4CCCCC4)C3)ncc2n1 (centres unmarked) .
Result: 1 (yes)

Ask: Check if IC50 falls below 0.6 µM for Cc1nc(NC(C)c2ccc(-c3ccccc3CN(C)C)s2)c2cc(N3CC(N)C3)ncc2n1 (centres unmarked) .
Result: 1 (yes)

Ask: Check if IC50 falls below 0.6 µM for Cc1nc(NC(C)c2ccc(-c3ccccc3CN(C)C)s2)c2cc(OC3CCS(=O)(=O)CC3)ncc2n1 (centres unmarked) .
Result: 1 (yes)

====

The compounds listed here are annotated with their IC50.
TARGET: hK-RasG12C - hSOS1 interaction (Homo sapiens, UniProt Q07889)
Construct: hSOS1 (amino acid 564-1049); made in house; host or cells: E. coli BL21 (DE3)
ASSAY_REMARKS: Biochemical Assay 1: hK-RasG12C interaction assay with hSOS1 (HTRF)
Assay type: binding
PROTOCOL_CONDITIONS: values expressed as IC50
// return numeric value only (unit: nM, not printed)

Ask: What does the record list as IC50 for Cc1nc(NC(C)c2ccc(-c3ccccc3CN(C)C)s2)c2cc(N3CC(NC(=O)CC4CC4)C3)ncc2n1 (stereo not shown) ?
Result: 55.1

Ask: What does the record list as IC50 for Cc1nc(NC(C)c2ccc(-c3ccccc3CN(C)C)s2)c2cc(N3CC(NS(=O)(=O)Cc4ccccc4)C3)ncc2n1 (stereo not shown) ?
Result: 107

Ask: What does the record list as IC50 for Cc1nc(NC(C)c2ccc(-c3ccccc3CN(C)C)s2)c2cc(N3CC(NC(=O)c4ccccc4)C3)ncc2n1 (stereo not shown) ?
Result: 59.5

Query compound follows.
Ask: What does the record list as IC50 for Cc1nc(N[C@H](C)c2cccc(Br)c2)c2cc(NCCn3ccnc3)ncc2n1 ?
Result: 513

====

TARGET: UniProt Q07889
Sequence (Q07889 with tags, fused parts or gaps): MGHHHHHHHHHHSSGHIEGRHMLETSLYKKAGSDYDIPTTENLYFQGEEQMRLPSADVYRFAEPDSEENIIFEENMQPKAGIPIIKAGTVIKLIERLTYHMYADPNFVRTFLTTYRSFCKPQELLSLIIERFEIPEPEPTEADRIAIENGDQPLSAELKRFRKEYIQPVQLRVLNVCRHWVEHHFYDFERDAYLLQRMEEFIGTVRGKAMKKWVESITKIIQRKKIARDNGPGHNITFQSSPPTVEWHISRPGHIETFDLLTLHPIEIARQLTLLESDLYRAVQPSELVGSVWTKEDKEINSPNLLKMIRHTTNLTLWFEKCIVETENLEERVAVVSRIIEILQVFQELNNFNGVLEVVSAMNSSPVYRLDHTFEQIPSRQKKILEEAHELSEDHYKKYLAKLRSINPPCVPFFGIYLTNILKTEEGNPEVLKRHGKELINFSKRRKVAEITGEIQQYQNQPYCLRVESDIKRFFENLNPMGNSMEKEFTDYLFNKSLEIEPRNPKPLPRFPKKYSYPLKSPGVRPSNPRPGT
READOUT_KIND: IC50 (nM)
// return numeric value only (unit: nM, not printed)

Check out these entries, answers already filled in.
Ask: What does the record list as IC50 for Cc1nc(NC(C)c2ccc(-c3ccccc3CN(C)C)s2)c2cc(N3CC(NCc4ccccc4)C3)ncc2n1 (centres unmarked) ?
Result: 82.5

Ask: What does the record list as IC50 for Cc1nc(NC(C)c2ccc(-c3ccccc3CN(C)C)s2)c2cc(N3CC(NC(=O)c4ccccc4)C3)ncc2n1 (centres unmarked) ?
Result: 173

Ask: What does the record list as IC50 for Cc1nc(NC(C)c2ccc(-c3ccccc3CN(C)C)s2)c2cc(N3CC(NC(=O)CC4CC4)C3)ncc2n1 (centres unmarked) ?
Result: 179

Ask: What does the record list as IC50 for Cc1nc(NC(C)c2ccc(-c3ccccc3CN(C)C)s2)c2cc(Oc3cccc(O)c3)ncc2n1 (centres unmarked) ?
Result: 532

Ask: What does the record list as IC50 for CCOc1cc2c(N[C@H](C)c3cccc(S(C)(=O)=O)c3)nc(C)nc2cn1 ?
Result: 2380

Next:
Ask: What does the record list as IC50 for Cc1nc(NC(C)c2ccc(-c3ccccc3CN(C)C)s2)c2cc(N3CCNC(=O)C3)ncc2n1 (centres unmarked) ?
Result: 54.8

Ask: What does the record list as IC50 for Cc1nc(N[C@H](C)c2cccc(Br)c2)c2cc(OCCN(C)C)ncc2n1 ?
Result: 2270

Ask: What does the record list as IC50 for COc1cc2c(N[C@H](C)c3ccc(F)c(C4CC4)c3)nc(C)nc2cn1 ?
Result: 8170

Ask: What does the record list as IC50 for CC(=O)NC1CCN(c2cc3c(N[C@H](C)c4cccc(Br)c4)nc(C)nc3cn2)C1 (mixture of isomers) ?
Result: 366

Ask: What does the record list as IC50 for Cc1nc(N[C@H](C)c2cccc(Br)c2)c2cc(Oc3cccc(C4=NCCN4C)c3)ncc2n1 ?
Result: 3880

Ask: What does the record list as IC50 for COc1cc2c(NC(C)c3ccc(-c4ccccc4CN(C)C)s3)nc(C)nc2cn1 (centres unmarked) ?
Result: 80.3
